ASSAY_INFO: soluble on expression in E. coli; label from the status in PepcDB or PDB records

QUERY_SEQUENCE: MSLKKILIIVPDGGMLFESAGIADILMQANRLHPEGAREICYQVKLATTQPHQVIHGQSGLNLLADHRLHEIDPREPLDTIMITGRGQNPQEGMAVVDWLRLAAPHARRIVSICGGAMLLAQTGLLDGRRATTHWKLLETMQAEFPQIRVEGGPLYIQDEHIWTSGGVSSGFDLTLALVEEDYGEGHHHHHH
soluble on expression in E. coli: not soluble

QUERY_SEQUENCE: MSYAKVSHWQMASTEQLIIPPNNDPRPDDQLVIVVVTADGIASPIPLNVSRREVIRQVEMLNRNLTAANRGDNYQGQASQLYDWFIKPIKLILENKKIENISFILDRGLRSLPMATMYDRQSGQYLIEDYSVGLMPSLSLTNRDYAPLTGAQILAMGAEEFANQNPLPAAAVEVDTITNQLWRGSAFLNDRFTVDNFVQSLATKEYRLVHLATHGEFLPGNRNNSFVVFSDRSLDLDEFANVGLDKPIDLMVLSACRTAVGDFDAELGFAGLAVKTGVKTAIGSLWYVSDEATFALMTSFYDRLQPAPIKAKALQQAQLSLLRGEIRVVDGNLVLGDGTNISLADLPADIRQRLATQDLSHPYFWSGFTLVGSPWLEHHHHHH
soluble on expression in E. coli: not soluble
